- Assay: yeast display, Sf9 membrane polyspecificity reagent, FACS + sequencing; frameworks hold sequencing errors

| Query sequence | polyreactivity (PSR sort gate) |
| --- | --- |
| QVQLVESGGGLVQAAGSLRLSCAASGRISRTNAMGWYRQAPGKERQLVATINSGTGTNYADSVKGRFTISRDNAKNTVYLQMNSLKPEDTEVYYCAARYRYWPKYYPVSYRYDYWGQGTQVTVSS | low polyreactivity |
| QVQLVESGGGLVQAGGSLSLSCAASGFIFHYYAMAGYRQAPGKERELVAAISKTVGSTYYADSVKGRFTISRDNAKNTVYLQMNSRKPEDTAVYYCAVGYSRRNTPYDYWGQGTQVTVSS | high polyreactivity |
| QVQLVESGGGLVQAGGSLRLSCAASGSIFNTNAMGWYRQAPGKERELVAAISKNAGRTFYADSVKGRFTISRDNAKNTVYLQMNSLKPEDTAVYYCAARGVGPQPGYQRFNYWGQGTQVTVSS | high polyreactivity |
| QVQLVESGGGLVQAGGSLRLSSAASGFTFVINDMGWYRPAPGKERELVADITSGGDTYYADSVKGRFTISRDNAKNTVYLQMNSLKPEDTAVYYCAADIYPDWIYLLYGYWGQGTQVTVSS | low polyreactivity |
| QVQLVESGGGLVQAGGSLRLSCASSGSTFYTNAMGWYRQAPGKERELVAGISSGGSTYYADSVKARFTISRDNAKNTVYLQINSLKPEDTAVYYCAAVERTRYWEFYYWGQGTQVIVSS | high polyreactivity |
| QVQLVESGGGLVQAGGSLRLSCAASGRIFPYYVMGWYRQAPGKERELVAAISRSGSSTYYADSVKGRFTISRDNAKNTVSLQMNSLKPEDTAVYSCAADYNWSPYYTRGDYWGQGTQVTVSS | high polyreactivity |
| QVQLVESGGGLVQAGGSLRLSCAASGRIFSYYTMGWYRQAPGKERELVAAITGSGGTTYYADSVKGRFTISRDNAKNTVYLQMNSLKPEDTAVYYCAARGYYRWAPYADWRFNYWGQGTQVTVSS | high polyreactivity |
| QVQLVESGGGLVQAGGSLRLSCAASGFTSWQYAMGWYRQAPGKERELVAAISVSGASTNYADSVRGRFTISRDNAKNTVYLQMNSLKPEETAVYYCAAAYVRYPTTRYYYWGQGTQVTVSS | high polyreactivity |
| QVQLVESGGGLVQAGGSLRLSCAASGGSFLVNDMGWYRQAPGTERELVAAITSGGGTYYADSVKGRFTISRDNAKNTVYLQMNSLNPEDTAVYYCARDTYRPIVSNESYGYWGQGTQVTVSS | low polyreactivity |
| QVQLVESGGGLVLAGGRLRLSCAASGSTFGYYAMGWYRQAHGKERELVAAISQGAGRTYYADSVKGRFTISRDNAKNTDYLQMNSLKPEDSAVYYFAASVTVHRWAYGYWGQGTQVTVSS | high polyreactivity |
| QVQLVESGGGLVQAGGSLRRSCAASGSTFTTYAMGWYRQAPGKERELGAAITSVGSTYYEDSVKGRCTISRDNAKNTVYLQLNSLKPEDTAVYYCNVVYRDQYNDWGQGTQVTVSW | low polyreactivity |
| QVHHVESGGGLVQAGGSLRISCAASGAIFFFNTMGWYRLAPGKERELVAVITSGGSTYYADSVKGRFTISRDNAKNTVYLQMNSLKPEDTAVYYCNAYTWGVGSSLDDVGYWGQGTQVTVSS | low polyreactivity |
| QVQLVESGGGLVQAGGSLRLSCAASGRTFSHYAMGSYRQAPGKEREFVADITRSGGSTYYADSVKGRFTISRDNAKNTVYLQMNSLKPEDTAVYYCNAESYFEIYDYWGQGTQVTVSS | high polyreactivity |
| QVQLVESGGGLVQAGGSIGLNCAASVSSYEPYVMGWYRQATGKEMELVGAIYESGDTTYYADSVKGRFTISRDNAKNTVYLQMNSLKPEDSAVYYCNAEDPSIYGWWRVGEYDYWGQGTQVTVSS | low polyreactivity |
| QVQLVESGGGLVQAGGSLRLSCAASGSTFYRNAMGWYRQAPGKEREFVAAISFRGGGTYADSVKGRFTISRDNAKNTVYLQMNSLIPEDTAVYYCAADHLSYRRRYEYWGQGTQVTVSS | low polyreactivity |
| QVQLVESGGGLVQAGGSLRLSCAASGFIFAGYAMGWYRQAPGKERELVAAINRNGRSTYYADSVKGRFTISRDNAKNTVYLQMNSLKPEDTAVYYCNARSFARIGAGKGDYWGQGTQVTVSS | high polyreactivity |
| QVQLVESRGGLVQAGGSLRLSCDASGSTIFENVMGWYRQAPGKEREFVAAINTSGGSTYYADSVKGRFTISRDNAKNTVYLQMNSLKPEDTAVYYCARDSYWEMDYWGQGTQVTVSS | low polyreactivity |
| QVQLVESGGGLVQAGGSLRLSSAASGFIFGAYAMGWYRQAPGKERELVAANSSRGGNTYYADSVKGRFTISRDNAKNTVYLQMNSLKPEDPAVYDCNAVGYAPYLYVPPPYEYWGQGTQVTVSS | high polyreactivity |
| QVQLVESGGGLVQAGGSLRLSCAASGSIFVVYAMGWYRQAPGKERELVASIRTGGSTNYADSVKGRFTISRDNAKNTVYLQMNSLKPEDTAVYYCAAASWNCNRHYYVARYYYWGQGTQVNVSS | high polyreactivity |
| QVQLVESGGGLVQAGGSLRLSCAASGFTFPGYAMGGYRQAPGKERELVAAISSTDRTTYADSVKGRFTISRDNAKNTVYLQMNSLKPEDTAVYYCNTATRRRPRGYWGQGTQVTVSS | high polyreactivity |
| QVQVVESGGGLVQAGGSLRLSCAASGFIFRRYAMGWYRQAPGKEMELVAAINYSGGSTYYADSVKGRFTISRDNEKNTVYLQMKSLKPEDNAVYYCNAYGLRYYEYDYWGQGTQVTVSS | low polyreactivity |
